- ASSAY_NAME: chemical genetic growth profiling, strain panel (AID 1159580);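 note: tested at 20 µM; growth read once vehicle control cultures reached saturation at 30 °C; 1 = growth at the plate median or of vehicle wells; lower values mean less growth of the strain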
- RUN_PARAMETERS: S. cerevisiae deletion strains, growth OD, locus YOR316C, strain cot1, hits give low values
Among all 5,500 compounds or so, about 2,000 (36%) were called active. Not shown: some 18% with an inconclusive outcome. The list shows a part of the results.
Rule: normalized growth below 1 gives true. Equal to or above 1 gives false.

| COMPOUND | CLASS |
| --- | --- |
| CCN(CC)C(=S)SSC(=S)N(CC)CC | true |
| COc1cc(OC)c2c(c1)OC(c1ccc(OC)c(OC)c1)C(O)C2 (stereo unspecified) | false |
| COc1ccc(C2CC(=O)c3ccc(OC)cc3O2)cc1 (stereo unspecified) | true |
| C=C(C)/C=C1/C=CC(=O)C(C)=C1 | true |

----------
- ASSAY_NAME: chemical genetic growth profiling, strain panel (AID 1159580)
- RUN_PARAMETERS: S. cerevisiae deletion strains, growth OD, locus YMR231W, strain pep5, hits give low values
Out of some 5,500 compounds screened, about 2,000 (36%) were called active. Another 18% or so got no clear call; they are omitted. The list shows a part of the results.
# normalized growth listing for each entry below

| MOLECULE | normalized growth |
| --- | --- |
| CC(=O)OCC(CCn1cnc2cnc(N)nc21)COC(C)=O | 0.986 |
| CC(=O)O[C@H]1C(=O)[C@@]2(C)C([C@H](OC(=O)c3ccccc3)[C@]3(O)C[C@H](O)C(C)=C1C3(C)C)[C@]1(OC(C)=O)CO[C@@H]1C[C@@H]2O (some centres not stated) | 1 |
| O=c1ccc2cc(O)c(O)cc2o1 | 1 |
| NCC1CCCCC1CC(=O)O (configuration not stated) | 1.02 |
| Cc1c(N(C)C)c(=O)n(-c2ccccc2)n1C | 0.978 |
| Cc1cc(C(C)(C)CC(C)(C)C)ccc1OCCOCC[N+](C)(C)Cc1ccccc1 | 0.0634 |
| COC(=O)COc1cc(Cl)c(Cl)cc1Cl | 0.989 |
| N#Cc1c(Cl)c(Cl)c(Cl)c(C#N)c1Cl | 0.0788 |
| Cc1cc(=O)c2c(O)c(C)c(O)cc2o1 | 1.02 |
| COc1cc(O)c(C(=O)c2ccccc2)cc1O | 1.01 |
| CCc1ccc(CCOc2ccc(CC3SC(=O)NC3=O)cc2)nc1 (configuration not stated) | 0.995 |
| CC(=O)O[C@]1(C(C)=O)CCC2C3C=C(Cl)C4=CC(=O)CC[C@]4(C)C3CC[C@@]21C (some centres not stated) | 1.02 |
| Cc1cc(OC(=O)N2CCCCC2)c(C(C)C)cc1[N+](C)(C)C | 1.01 |
| CC(=O)[C@H]1CCC2C3C[C@H](C)C4=CC(=O)CC[C@]4(C)C3[C@@H](O)C[C@@]21C (some centres not stated) | 0.989 |
| COC(=O)[C@@H]1C(O)CC[C@H]2CN3CCc4c([nH]c5ccccc45)[C@@H]3C[C@@H]21 (some centres not stated) | 1.01 |
| COc1c(O)cc2oc3cc(O)c(CC=C(C)C)c(O)c3c(=O)c2c1CC=C(C)C | 1 |
| Cc1cc(=O)c2c(O)cc(O)c(C)c2o1 | 0.933 |

----------
- ASSAY_NAME: chemical genetic growth profiling, strain panel (AID 1159580);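 note: tested at 20 µM; growth read once vehicle control cultures reached saturation at 30 °C; 1 = growth at the plate median or of vehicle wells; lower values mean less growth of the strain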
- RUN_PARAMETERS: S. cerevisiae deletion strains, growth OD, locus YER111C, strain swi4, hits give low values
Among all 5,500 compounds or so, about 2,000 (36%) were called active. About 18% were inconclusive and are not listed. Some of the results follow.
Form field: normalized growth (one value per entry).
ENDPOINT: normalized growth

| COMPOUND | ASSAY_RESULT |
| --- | --- |
| CC1(C)C2CC[C@]3(C)C(C(=O)C=C4[C@H]5C[C@@](C)(C(=O)O)CC[C@]5(C)CC[C@]43C)[C@@]2(C)CC[C@@H]1O (stereo not given in full) | 1.01 |
| OCC(O)Cc1ccc2c(c1)OCO2 (stereo not given) | 0.997 |
| COc1ccc2c(c1)OC[C@@H](Cc1ccc(OC)c(OC)c1)[C@H]2O | 1 |
| NC(=O)N1c2ccccc2CC(=O)c2ccccc21 | 0.993 |
| OCCN(CCO)c1nc(N2CCCCC2)c2nc(N(CCO)CCO)nc(N3CCCCC3)c2n1 | 0.971 |
| CC1(C)C2CC[C@]3(C)C(C(=O)C=C4[C@@H]5C[C@@](C)(C(=O)O)CC[C@]5(C)CC[C@]43C)[C@@]2(C)CC[C@@H]1OC(=O)CCC(=O)O (stereo not given in full) | 0.968 |
| COC(=O)COc1cc(Cl)c(Cl)cc1Cl | 0.997 |
| Cc1cc(=O)c2c(O)cc(O)c(C)c2o1 | 0.934 |
| NC(N)=Nc1nc(CSCCC(N)=NS(N)(=O)=O)cs1 | 0.991 |
| O=c1ccc2cc(O)c(O)cc2o1 | 0.99 |
| COC(=O)C1=COC(OC2OC(CO)C(O)C(O)C2O)C2C(C)CC(=O)C12O (stereo not given) | 0.987 |
| C=CCc1ccc2c(c1)OCO2 | 1.02 |
| CCc1nc(N)nc(N)c1-c1ccc(Cl)cc1 | 0.983 |
| COc1ccc2c(c1)OC[C@@H](Cc1ccc(OC)c(OC)c1)[C@@H]2O | 0.998 |
| Cc1cc(=O)c2c(O)c(C)c(O)cc2o1 | 1.03 |
| CC(C)N(C(=O)CCl)c1ccccc1 | 1.02 |
| N=c1nc(N2CCCCC2)cc(N)n1O | 0.987 |
| CC1(C)C2CC[C@]3(C)C(C(=O)C=C4[C@@H]5C[C@@](C)(C(=O)O)CC[C@]5(C)CC[C@]43C)[C@@]2(C)CC[C@@H]1O (stereo not given in full) | 1.03 |
| c1ccc(CN(CC2=NCCN2)c2ccccc2)cc1 | 1.03 |
| CN=C(NC#N)NCCSCc1nc(N=C(N)N)cs1 | 0.993 |

----------
- ASSAY_NAME: chemical genetic growth profiling, strain panel (AID 1159580);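 note: tested at 20 µM; growth read once vehicle control cultures reached saturation at 30 °C; 1 = growth at the plate median or of vehicle wells; lower values mean less growth of the strain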
- RUN_PARAMETERS: S. cerevisiae deletion strains, growth OD, locus YDL185W, strain tfp1, hits give low values
Among all 5,500 compounds or so, about 2,000 (36%) were called active. Not shown: some 18% with an inconclusive outcome. The list shows a part of the results.

| MOLECULE | normalized growth |
| --- | --- |
| O=C(O)c1ccccc1OP(=O)(O)O | 0.976 |
| O=C(O)C1C(O)CCC2CN3CCc4c([nH]c5ccccc45)C3CC21 (configuration not stated) | 1.01 |
| COC(=O)[C@@H]1C(O)CC[C@H]2CN3CCc4c([nH]c5ccccc45)[C@@H]3C[C@@H]21 (some centres not stated) | 0.971 |
| CC(C)=CCc1c(O)cc(C)oc1=O | 0.961 |
| COc1ccc2cc1Oc1ccc(cc1)C[C@H]1c3cc(c(OC)cc3CCN1C)Oc1c(OC)c(OC)cc3c1[C@H](C2)N(C)CC3 | 1.01 |
| CCC(C(N)=O)c1ccccc1 (configuration not stated) | 0.997 |
| COC(=O)[C@H]1[C@H]2C[C@H]3c4[nH]c5ccccc5c4CCN3C[C@H]2CC[C@@H]1O | 1.01 |

----------
- ASSAY_NAME: chemical genetic growth profiling, strain panel (AID 1159580);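 note: tested at 20 µM; growth read once vehicle control cultures reached saturation at 30 °C; 1 = growth at the plate median or of vehicle wells; lower values mean less growth of the strain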
- RUN_PARAMETERS: S. cerevisiae deletion strains, growth OD, locus YPL241C, strain CIN2, hits give low values
About 2,000 (36%) of roughly 5,500 compounds were called active. About 18% were inconclusive and are not listed. The list shows a part of the results.
Listing of recorded normalized growth by entry.

| COMPOUND | normalized growth |
| --- | --- |
| COc1ccc2c(c1)OC[C@@H](Cc1ccc(OC)c(OC)c1)[C@H]2O | 1 |
| COc1cc(OC)c2c(c1)OC(c1ccc(OC)c(OC)c1)C(O)C2 (stereo unspecified) | 1.02 |
| CCC1(c2ccccc2)C(=O)NCNC1=O | 1.01 |
| FC(F)(F)Oc1ccc(-c2noc(CSc3ccc(Br)cc3)n2)cc1 | 0.966 |
| CCCCOc1ccc(C(=O)CCC(=O)O)cc1 | 1.01 |
| NC(=O)COc1c(F)cc(SCCNS(=O)(=O)c2ccccc2)cc1F | 0.996 |
| COc1ccc(S(=O)(=O)Nc2cc(C)c(C)cc2[N+](=O)[O-])c(OC)c1 | 1.03 |
| Cc1cc(C)c(NC(=S)NCCCN2CCOCC2)c(C)c1 | 0.995 |
| N#Cc1c(Cl)c(Cl)c(Cl)c(C#N)c1Cl | 1 |
| Cn1cc(C2=C(c3ccc(Cl)cc3Cl)C(=O)NC2=O)c2ccccc21 | 1.01 |
| CC(SCc1ccccc1)C(=O)O (stereo unspecified) | 1 |
| CCCCCC(C)N (stereo unspecified) | 1 |
| CN1C(=O)CN=C(c2ccccc2)c2ccccc21 | 1.05 |
| c1ccc(CC2=NCCN2)cc1 | 0.99 |
| CSC(=N)N | 1.01 |
| CCCCCCCCCCCCCCC[C@H](O)[C@H](N)CO | 0.998 |
